# Species on record: Rattus norvegicus
# protocol details: The compound was evaluated for its ability to stimulate adenylate cyclase activity
# Assay type: functional
property: pEC50
Expect pEC50 as a plain number equal to -log10 of the molar concentration.

molecule	numeric readout
CC(C)(Cc1ccc(N)cc1)NCC(O)c1ccc(O)c2nc(O)ccc12 (stereo not given)	7.85
CC(C)(Cc1ccc(I)cc1)NCC(O)c1ccc(O)c2nc(O)ccc12 (stereo not given)	8.25
CC(C)NCC(O)c1ccc(O)c(O)c1 (single isomer, unassigned; (-)) [ISOPROTERENOL]	6.65
CC(C)(Cc1ccccc1)NCC(O)c1ccc(O)c2nc(O)ccc12 (stereo not given)	8.16

Notebook: CC(C)(Cc1ccc(NC(=O)CBr)cc1)NCC(O)c1ccc(O)c2nc(O)ccc12 (stereo not given) , pEC50 read as 8.07
